- Test system: M. tuberculosis wild type, biotin-free medium, growth
- experiment: growth inhibition of wild-type M. tuberculosis, biotin-free medium, single point, dry powder (AID 743350)
Calls of active or inactive are those of the source. No rule for the calls is given here.
Your response should consist of one outcome taken from YES = active, NO = inactive

Which outcome did this test record for the compound CN1c2ccc(-c3ccc(F)cc3)cc2[C@H]2[C@H](CCN2C(=O)Cc2ccccn2)[C@H]1CO ?
NO

Test call, this compound: CN1c2ccc(-c3cccc(F)c3)cc2[C@H]2[C@H](CCN2C(=O)CCCCCCC(=O)O)[C@H]1CO
NO

Called result for CN1c2ccc(-c3cccc(F)c3)cc2[C@H]2[C@H](CCN2C(=O)CCCCCCN)[C@H]1CO
NO

What did this assay record as the result for COC(=O)CCCCCCC(=O)N1CC[C@@H]2[C@@H](CO)N(C)c3ccc(-c4cccc(F)c4)cc3[C@@H]21 ?
NO

Per the records of this test, what outcome belongs to COc1cccc(NC(=O)N2CC[C@@H]3[C@@H](CO)N(C)c4ccc(-c5cccc(F)c5)cc4[C@@H]32)c1 ?
NO

Outcome logged for CN1c2ccc(-c3ccc(F)cc3)cc2[C@H]2[C@H](CCN2C(=O)Nc2cc(F)ccc2F)[C@H]1CO in this assay:
NO

Please indicate how the test categorized CC(=O)c1ccc(N2CCN(C(=O)c3ccc4c(c3)OCO4)CC2)cc1 .
YES
